# TEST_NAME: oral bioavailability in dogs
# CONDITION_LABEL: dog, in vivo

| COMPOUND | U | bioavailability |
| --- | --- | --- |
| CCN(CC)CCOC(=O)[C@H](Cc1ccc(NC(=O)c2c(Cl)cccc2Cl)cc1)NC(=O)c1c(C)cccc1Cl.Cl [R 411] | % | 20 |

###

# TEST_NAME: oral bioavailability in monkeys
# CONDITION_LABEL: monkey, in vivo

| COMPOUND | bioavailability |
| --- | --- |
| CCN(CC)CCOC(=O)[C@H](Cc1ccc(NC(=O)c2c(Cl)cccc2Cl)cc1)NC(=O)c1c(C)cccc1Cl.Cl [R 411] | 6% |

###

# TEST_NAME: oral bioavailability in rats
# CONDITION_LABEL: rat, in vivo

| COMPOUND_STRUCTURE | bioavailability / % |
| --- | --- |
| CCN(CC)CCOC(=O)[C@H](Cc1ccc(NC(=O)c2c(Cl)cccc2Cl)cc1)NC(=O)c1c(C)cccc1Cl.Cl | 20 |
